Experiment: Intrinsic clearance in monkey microsomes assessed per mg protein
Format: ADME, Macaca mulatta, Microsome
Conditions: rhesus monkey
MEASURE_NAME: microsomal CLint

For the molecule "O[C@H]1CNCCC[C@@H]1n1c2ccc(C(F)(F)F)cc2c2cc(C(F)(F)F)ccc21" , report microsomal CLint.
< 10 µL/min/mg

---

Assay: Volume of distribution at steady state in CD1 mouse at 0.2 mg/kg, iv measured for 14 days
Format: ADME, organism-based
Details: in vivo, read-out: Vdss
MEASURE_NAME: Vd (L/kg)
One number for each entry, in L/kg.

For the compound "O[C@H]1CNCCC[C@@H]1n1c2ccc(C(F)(F)F)cc2c2cc(C(F)(F)F)ccc21" , report Vd.
10

---

Molecular target: Voltage-gated inwardly rectifying potassium channel KCNH2 (Homo sapiens)
Sequence (Q12809 whole entry): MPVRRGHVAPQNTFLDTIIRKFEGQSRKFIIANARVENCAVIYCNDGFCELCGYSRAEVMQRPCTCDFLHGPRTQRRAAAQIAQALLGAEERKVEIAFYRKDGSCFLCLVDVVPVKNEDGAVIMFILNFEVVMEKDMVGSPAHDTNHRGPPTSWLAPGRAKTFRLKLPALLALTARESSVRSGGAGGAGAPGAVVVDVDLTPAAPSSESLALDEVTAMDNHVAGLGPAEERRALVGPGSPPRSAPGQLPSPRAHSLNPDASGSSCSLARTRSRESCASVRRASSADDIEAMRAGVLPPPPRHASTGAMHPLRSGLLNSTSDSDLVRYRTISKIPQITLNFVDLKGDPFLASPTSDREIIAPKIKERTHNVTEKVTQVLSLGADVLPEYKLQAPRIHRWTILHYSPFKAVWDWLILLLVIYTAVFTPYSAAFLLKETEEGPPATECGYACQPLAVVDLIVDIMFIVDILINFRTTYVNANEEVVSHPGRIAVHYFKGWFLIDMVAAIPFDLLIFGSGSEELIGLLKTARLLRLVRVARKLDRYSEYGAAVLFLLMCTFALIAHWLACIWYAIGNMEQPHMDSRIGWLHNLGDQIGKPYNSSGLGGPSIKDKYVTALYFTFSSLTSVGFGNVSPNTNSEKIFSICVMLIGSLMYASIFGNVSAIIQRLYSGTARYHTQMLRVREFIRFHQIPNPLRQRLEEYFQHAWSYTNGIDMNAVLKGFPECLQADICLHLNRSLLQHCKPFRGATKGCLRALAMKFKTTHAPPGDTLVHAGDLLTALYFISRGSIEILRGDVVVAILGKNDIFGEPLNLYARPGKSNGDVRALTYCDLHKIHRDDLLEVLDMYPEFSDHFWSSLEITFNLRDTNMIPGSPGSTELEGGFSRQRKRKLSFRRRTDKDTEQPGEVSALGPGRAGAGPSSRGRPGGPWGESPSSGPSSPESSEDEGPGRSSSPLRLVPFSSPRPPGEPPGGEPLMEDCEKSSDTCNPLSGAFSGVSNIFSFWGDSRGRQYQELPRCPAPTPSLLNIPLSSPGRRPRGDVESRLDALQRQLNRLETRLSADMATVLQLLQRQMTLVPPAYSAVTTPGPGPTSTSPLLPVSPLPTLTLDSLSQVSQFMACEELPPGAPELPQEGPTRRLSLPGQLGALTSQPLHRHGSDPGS
MEASURE_NAME: pIC50
Give bare numbers, as −log10 of the molar value.

For the compound "O[C@H]1CNCCC[C@@H]1n1c2ccc(C(F)(F)F)cc2c2cc(C(F)(F)F)ccc21" , report pIC50.
5.93

---

Experiment: Intrinsic clearance in rat microsomes assessed per mg protein
Assay type: ADME, Microsome
MEASURE_NAME: microsomal CLint

For the molecule "O[C@H]1CNCCC[C@@H]1n1c2ccc(C(F)(F)F)cc2c2cc(C(F)(F)F)ccc21" , report microsomal CLint.
< 10 µL/min/mg

---

Tested on: Plasmodium falciparum
Experiment: Antiplasmodial activity against Plasmodium falciparum FCB infected in human erythrocytes after 72 hrs by [3H]-hypoxanthine incorporation assay
Type: functional, organism-based
MEASURE_NAME: EC50

For the compound "O[C@H]1CNCCC[C@@H]1n1c2ccc(C(F)(F)F)cc2c2cc(C(F)(F)F)ccc21" , report EC50.
3 nM

---

Experiment: Intrinsic clearance in human microsomes assessed per mg protein
Assay type: ADME, Microsome
MEASURE_NAME: microsomal CLint

For the molecule "O[C@H]1CNCCC[C@@H]1n1c2ccc(C(F)(F)F)cc2c2cc(C(F)(F)F)ccc21" , report microsomal CLint.
< 10 µL/min/mg

---

System: Plasmodium falciparum
Assay: Antiplasmodial activity against Plasmodium falciparum NF54 infected in human erythrocytes after 72 hrs by [3H]-hypoxanthine incorporation assay
Format: functional, organism-based
Settings: Plasmodium falciparum, NF54
MEASURE_NAME: EC50

Please report the measured EC50 for "O[C@H]1CNCCC[C@@H]1n1c2ccc(C(F)(F)F)cc2c2cc(C(F)(F)F)ccc21" tested on Plasmodium falciparum.
2.4 nM

---

Experiment: Oral bioavailability in rat at 0.5 mg/kg measured for 14 days
Type: ADME, organism-based
Conditions: in vivo
MEASURE_NAME: bioavailability (%)
Numbers only, in %.

For the compound "O[C@H]1CNCCC[C@@H]1n1c2ccc(C(F)(F)F)cc2c2cc(C(F)(F)F)ccc21" , report bioavailability.
72

---

Assay: Kinetic solubility of the compound in PBS at pH 7.4 after 24 hrs by HPLC analysis
Type: physicochemical
Settings: read-out: Kinetic_solubility
MEASURE_NAME: solubility kinetic at 24 h (µg/mL)
Numbers only, in µg/mL.

For the compound "O[C@H]1CNCCC[C@@H]1n1c2ccc(C(F)(F)F)cc2c2cc(C(F)(F)F)ccc21" , report solubility kinetic at 24 h.
1.5

---

Assay: Fraction unbound in mouse plasma at 1000 ng/mL by LC-MS analysis
Assay type: ADME, cell-free
MEASURE_NAME: fraction unbound at 1000 ng/mL
Answers are plain numbers.

For the compound "O[C@H]1CNCCC[C@@H]1n1c2ccc(C(F)(F)F)cc2c2cc(C(F)(F)F)ccc21" , report fraction unbound at 1000 ng/mL.
0.026
